// provenance: patent US6737383B1

Below, each entry is listed alongside its reported Plant response rating, Rice (0 to 10 scale, 0 is no effect, 10 is complete control).
Test system: rice
Method summary: Test B flood test rice
Type: in vivo, Oryza sativa
Measurement setup: Rate 62 g/ha; flood test species, Pre-emergence; visual evaluation after twelve to sixteen days
Method: At the same time, these crop and weed species were also treated with postemergence applications of test chemicals formulated in the same manner. Plants ranged in height from 2 to 18 cm (1- to 4-leaf stage) for postemergence treatments. […] Treated plants and controls were maintained in a greenhouse for twelve to sixteen days, after which all species were compared to controls and visually evaluated. […]
Measured quantity: Plant response rating, Rice (0 to 10 scale, 0 is no effect, 10 is complete control)

CC[Si](C)(C)Cn1c(=O)on(C(=O)N(c2ccc(F)cc2)C(C)C)c1=O	0
CC(C)N(C(=O)n1oc(=O)n(C(CF)CF)c1=O)c1ccc(F)cc1	1
CC(C)N(C(=O)n1oc(=O)n(CCCC#N)c1=O)c1ccc(F)cc1F	0
Cc1nc(Cl)sc1C(C)n1c(=O)on(C(=O)N(c2ccc(F)cc2F)C(C)C)c1=O (stereo not shown)	0
CC(C)N(C(=O)n1oc(=O)n(N2CCOCC2)c1=O)c1ccc(F)cc1F	0
Cc1nc(Cl)sc1C(C)n1c(=O)on(C(=O)N(c2ccccc2)C(C)C)c1=O (stereo not shown)	0
CC1CC1Cn1c(=O)on(C(=O)N(c2ccc(F)cc2)C(C)C)c1=O (stereo not shown)	1

====

System: blackgrass
Method summary: Test B pre/postemergence blackgrass
Format: in vivo, Alopecurus myosuroides
Measurement setup: Preemergence, Rate 500 g/ha; scale of 0 to 10 where 0 is no effect and 10 is complete control
Measured quantity: Plant response rating, Blackgrass

C=C(Cn1c(=O)on(C(=O)N(c2ccccc2)C(C)C)c1=O)C(C)C	0
CC(C)N(C(=O)n1oc(=O)n(CC(C)(C)C)c1=O)c1ccccc1	10
CC(C)N(C(=O)n1oc(=O)n(Cc2nnc(Cl)s2)c1=O)c1ccc(F)cc1F	0
Cc1noc(C)c1Cn1c(=O)on(C(=O)N(c2ccc(F)cc2)C(C)C)c1=O	10
CC(C)N(C(=O)n1oc(=O)n(CCCCCl)c1=O)c1ccc(F)cc1	9

====

Test system: blackgrass
Method summary: Test B pre/postemergence blackgrass
Type: in vivo, Alopecurus myosuroides
Measurement setup: Preemergence, Rate 62 g/ha; scale 0 to 10 (0 no effect, 10 complete control)
Measured quantity: Blackgrass plant response rating

CC(C)N(C(=O)n1oc(=O)n(C(C)(C)C)c1=O)c1ccccc1	0
CCCCn1c(=O)on(C(=O)N(c2ccccc2)C(C)C)c1=O	6
CC(C)N(C(=O)n1oc(=O)n(C(C)c2ccccc2)c1=O)c1ccc(Cl)cc1 (centres unmarked)	3
Cc1ccccc1-n1c(=O)on(C(=O)N(Cc2ccccc2)C(C)C)c1=O	0
Cc1cccc(C)c1-n1c(=O)on(C(=O)N(Cc2ccccc2)C(C)C)c1=O	0

====

Tested on: blackgrass
Method summary: Test B pre/postemergence blackgrass
Assay type: in vivo, Alopecurus myosuroides
Measurement setup: Preemergence, Rate 500 g/ha; scale of 0 to 10 where 0 is no effect and 10 is complete control
Measured quantity: Plant response rating, Blackgrass

CC(C)N(C(=O)n1oc(=O)n(CCCC#N)c1=O)c1ccc(F)cc1F [Compound 675]	10
Cc1nc(C)c(-n2c(=O)on(C(=O)N(c3ccccc3)C(C)C)c2=O)s1 [Compound 197]	0
CC(C)N(C(=O)n1oc(=O)n(CC(=O)C2CCC2)c1=O)c1ccc(F)cc1 [Compound 640]	8
CC(=O)OCn1c(=O)on(C(=O)N(c2ccc(F)cc2)C(C)C)c1=O [Compound 292]	0
Cc1nc(C)c(-n2c(=O)on(C(=O)N(c3ccc(Cl)cc3)C(C)C)c2=O)s1 [Compound 196]	0
CC(C)N(C(=O)n1oc(=O)n(Cc2nnc(Cl)s2)c1=O)c1ccc(F)cc1 [Compound 646]	0
CCN(C(=O)n1oc(=O)n(C)c1=O)C1CCCCC1 [Compound 228]	0
